tested on: Northern house mosquitoes (Culex pipiens); test: Short-term spatial repellency, static air repellency chamber; assay type: in vivo; conditions: Culex pipiens, 1.5 h; filter paper, 1 mL of 0.5% solution in acetone, air-dried 15 min; 90 min; read-out: Short-term Percentage repellency 90 min
endpoint_name: pest or weed control at 0.5 %
Answer format: value, then unit.

>>> result("CC(=O)CCC(=O)OCCC(C)CCC=C(C)C (stereo not shown) [Compound 2183, citronellyl levulinate]")
"45%"

State its pest or weed control at 0.5 % on Northern house mosquitoes (Culex pipiens): Cc1cc(OC(=O)C2CC2)c(C(C)C)cc1[N+](=O)[O-] [Compound 1066B, 4-nitrothymyl cyclopropanecarboxylate]
57.5%

State its pest or weed control at 0.5 % on Northern house mosquitoes (Culex pipiens): CC(C)=CCCC(C)CCOC(=O)C=C(C)C (stereo not shown) [Compound 2105, citronellyl 3,3-dimethylacrylate]
75%
